Attribution: the DeepSol protein solubility set

Assay: soluble on expression in E. coli; label from the status in PepcDB or PDB records

| residueSequence | soluble on expression in E. coli |
| --- | --- |
| MGSDKIHHHHHHSDKKNTADESEKGVSTVLPDTKNEVAVQILKKRDFHHELVSNGKISARGKADLRFETGEVIAHIYVKNGDRVQKGQKLADLDKFRLEQKLSQSEDALLKAELELKDVLIGQGYSPDDFSKVPAETMKIAKVKSGYEQSKSQYELAKREMEHATLIAPFDGVVANLFSKPYNPANTSEAFCTIIDSKGMEADFTVLENELAFIRMGDKVVITPYAGGDAFEGSVSEINPLVDANGMVKVKALVNAGGKLFSGMNVRVSVRRSLGERLVIPKSAVVLRSGKQVVFTLKDGKAMWNYVNTGLENAIECVVSDKSQKGIEDGLLEGDTVIVTGNLNLAHEAEVYVK | not soluble |
| MKLFHRITISLSEDDMKLIEELRRDSGDSLSKIFREAIQLYYNLLKASKAAGVDFRKYFANATRLAFHINGVEQKQFAVIDREIYRVMLKKLQEKVPPESIESDEEFRSAVAGVVKLFEITRDRWSEYTDEQKLEEILTTMEFAGAGTFARVGDKEYIFNTYAESTAITKLIISSVLASAGLKVEIDHTPGKIFIRL | not soluble |
